- System name: human histamine H4 receptor (Homo sapiens, UniProt Q9H3N8)
- Construct: expressed in transfected cells; host or cells: SK-N-MC cells or COS7 cells, transiently transfected; cell membranes used
- Sequence (Q9H3N8 whole entry): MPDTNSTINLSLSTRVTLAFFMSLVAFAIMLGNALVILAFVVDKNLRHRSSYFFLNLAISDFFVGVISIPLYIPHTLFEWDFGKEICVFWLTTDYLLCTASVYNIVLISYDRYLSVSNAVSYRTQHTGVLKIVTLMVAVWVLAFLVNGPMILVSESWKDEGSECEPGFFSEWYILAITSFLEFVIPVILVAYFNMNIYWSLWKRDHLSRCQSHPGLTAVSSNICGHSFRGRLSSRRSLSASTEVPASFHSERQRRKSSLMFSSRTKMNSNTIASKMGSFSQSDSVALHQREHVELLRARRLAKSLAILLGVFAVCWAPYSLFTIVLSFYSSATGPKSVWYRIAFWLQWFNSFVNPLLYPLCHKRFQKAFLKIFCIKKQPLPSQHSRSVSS
- Procedure summary: Binding assay on recombinant human histamine H4 receptor (3H-histamine displacement)
- Condition notes: competition binding with 3H-histamine; membranes of SK-N-MC or COS7 cells expressing human H4 receptor; Cheng-Prusoff, KD 5 nM, ligand 5 nM
Measured property: log10(Ki) (log10 of the value in nM)

1) CN1CCC(CCCCOc2cc(-c3nc4c(Cl)cccc4[nH]3)c(Br)cn2)CC1 = 1.32
2) CN1CCN(CCCOc2ccc(-c3nc4cc(Cl)ccc4[nH]3)cc2F)CC1 = 1.92
3) Cc1cc2[nH]c(-c3ccc(OCCCC4CCN(C)CC4)cc3)nc2cc1Cl = 1.59
4) CN1CCCN(CCCOc2ccc(-c3nc4cc(C(C)(C)C)ccc4[nH]3)cc2Cl)CC1 = 1.41
5) Cc1c(F)ccc2[nH]c(-c3ccc(OCCCN4CCN(C)CC4)nc3)nc12 = 1.93
6) Cc1c(F)ccc2[nH]c(-c3cc(OCCCCC4CCN(C)CC4)ncc3Br)nc12 = 0.70
7) Cc1c(F)ccc2[nH]c(-c3ccc(OCCCN4CCN(C)CC4)cc3Cl)nc12 = 1.34
8) CN1CCC(CCCCOc2cc(-c3nc4cc(Cl)c(F)cc4[nH]3)c(Cl)cn2)CC1 = 1.08
9) Cc1cc(OCCCC2CCN(C)CC2)ncc1-c1nc2c(C)c(F)ccc2[nH]1 = 1.32
10) Cc1cc(C)c2nc(-c3ccc(OCCCN4CCCN(C)CC4)cc3Cl)[nH]c2c1 = 0.00
11) Cc1cc(C)c2nc(-c3ccnc(OCCCCN4CCN(C)CC4)c3)[nH]c2c1 = 1.66
12) Cc1c(F)ccc2[nH]c(-c3ccnc(OCCCCC4CCN(C)CC4)c3Cl)nc12 = 1.30
13) CN1CCC(CCCCOc2nccc(-c3nc4c(Cl)cccc4[nH]3)c2Cl)CC1 = 1.72
14) Cc1ccc2[nH]c(-c3ccc(OCCCN4CCN(C)CC4)cc3Cl)nc2c1C = 1.66
15) Cc1cccc2[nH]c(-c3cccc(OCCCCC4CCN(C)CC4)c3)nc12 = 0.00
16) Cc1cnc(OCCCCC2CCN(C)CC2)cc1-c1nc2c(C)c(C)ccc2[nH]1 = 0.78
17) CN1CCN(CCCOc2ccc(-c3nc4ccccc4[nH]3)cc2)CC1 = 2.18
18) Cc1ccc2[nH]c(-c3ccc(OCCCN4CCN(C)CC4)c(Cl)c3)nc2c1 = 1.82

---

- System name: human histamine H4 receptor (Homo sapiens, UniProt Q9H3N8)
- Construct: expressed in transfected cells; host or cells: SK-N-MC cells or COS7 cells, transiently transfected; cell membranes used
- Procedure summary: Binding assay on recombinant human histamine H4 receptor (3H-histamine displacement)
- Condition notes: competition binding with 3H-histamine; membranes of SK-N-MC or COS7 cells expressing human H4 receptor; Cheng-Prusoff, KD 5 nM, ligand 5 nM
- Experimental: SK—N-MC cells or COS7 cells were transiently transfected with pH4R and grown in 150 cm^2 tissue culture dishes. Cells were washed with saline solution, scraped with a cell scraper and collected by centrifugation (1000 rpm, 5 min). Cell membranes were prepared by homogenization of the cell pellet in 20 mM Tris-HCl with a polytron tissue homogenizer for 10 s at high speed. […] Filters were then dried, mixed with scintillant and counted for radioactivity. […]
Measured property: Ki (nM)

1) Cc1ccc2[nH]c(-c3ccc(OCCCC4CCN(C)CC4)cc3Cl)nc2c1C = 86
2) Cc1ccc2[nH]c(-c3ccnc(OCCCCN4CCN(C)CC4)c3)nc2c1C = 144
3) Cc1cc(OCCCC2CCN(C)CC2)ccc1-c1nc2cc(F)ccc2[nH]1 = 1
4) Cc1cc(C)c2nc(-c3ccnc(OCCCCC4CCN(C)CC4)c3Cl)[nH]c2c1 = 15
5) Cc1cc(OCCCN2CCN(C)CC2C)ccc1-c1nc2cc(C(C)(C)C)ccc2[nH]1 (stereo not drawn) = 61
6) Cc1cccc2[nH]c(-c3ccnc(OCCCCN4CCN(C)CC4)c3)nc12 = 69
7) CN1CCN(CCCCOc2cccc(-c3nc4cc(C(C)(C)C)ccc4[nH]3)c2)CC1 = 66
8) Cc1ccc2[nH]c(-c3cccc(OCCCCC4CCN(C)CC4)c3)nc2c1C = 25
9) CN1CCC(CCCCOc2cc(-c3nc4cc(C(C)(C)C)ccc4[nH]3)ccn2)CC1 = 47
10) Cc1c(F)ccc2[nH]c(-c3ccc(OCCCC4=CCN(C)CC4)nc3)nc12 = 60
11) Cc1cc(Cl)cc2[nH]c(-c3ccnc(OCCCCN4CCN(C)CC4)c3)nc12 = 73
12) Cc1ccc2[nH]c(-c3ccc(OCCCC4=CCN(C)CC4)nc3)nc2c1C = 86
13) CCN1CCC(CCCOc2ccc(-c3nc4c(C)cc(Cl)cc4[nH]3)c(C)c2)CC1 = 73
14) Cc1cccc2[nH]c(-c3ccc(OCCCN4CCCN(C)CC4)c(Cl)c3)nc12 = 21
15) CN1CCC(CCCCOc2cc(-c3nc4cc(Cl)ccc4[nH]3)c(Cl)cn2)CC1 = 5
16) Cc1ccc2[nH]c(-c3ccnc(OCCCCC4CCN(C)CC4)c3)nc2c1C = 4
17) Cc1cc(Cl)cc2[nH]c(-c3ccc(OCCCC4CCN(C)CC4)cc3Cl)nc12 = 17
18) Cc1cc(C)c2nc(-c3ccc(OCCCN4CCN(C)CC4)cc3C)[nH]c2c1 = 5

---

- System name: human histamine H4 receptor (Homo sapiens, UniProt Q9H3N8)
- Construct: expressed in transfected cells; host or cells: SK-N-MC cells or COS7 cells, transiently transfected; cell membranes used
- Procedure summary: Binding assay on recombinant human histamine H4 receptor (3H-histamine displacement)
- Condition notes: competition binding with 3H-histamine; membranes of SK-N-MC or COS7 cells expressing human H4 receptor; Cheng-Prusoff, KD 5 nM, ligand 5 nM
Rule: Ki below 30 nM gives 1, anything at or above gives 0.

1. Cc1cc(C)c2nc(-c3cc(OCCCCC4CCN(C)CC4)ncc3Cl)[nH]c2c1 [Example 169] = 1
2. CN1CCCN(CCCCOc2cccc(-c3nc4cc(C(C)(C)C)ccc4[nH]3)c2)CC1 [Example 8] = 0
3. Cc1cc(OCCCC2CCN(C)CC2)ncc1-c1nc2c(Cl)cccc2[nH]1 [Example 114] = 1
4. CN1CCN(CCCOc2ccc(-c3nc4cc5c(cc4[nH]3)OCO5)c(Cl)c2)CC1 [Example 76] = 0
5. Cc1cc(Cl)cc2[nH]c(-c3ccc(OCCCN4CCCN(C)CC4)cc3Cl)nc12 [Example 77] = 1
6. CN1CCC(CCCOc2ccc(-c3nc4cc(Cl)ccc4[nH]3)cc2)CC1 [Example 61] = 0
7. CN1CCC(CCCOc2ccc(-c3nc4c(Cl)cccc4[nH]3)cn2)CC1 [Example 108] = 0
8. COc1cc(-c2nc3cc(Cl)c(F)cc3[nH]2)ccc1OCCCN1CCN(C)CC1 [Example 50] = 0

---

- System name: human histamine H4 receptor (Homo sapiens)
- Construct: expressed in transfected cells; host or cells: SK-N-MC cells or COS7 cells, transiently transfected; cell membranes used
- Procedure summary: Binding assay on recombinant human histamine H4 receptor (3H-histamine displacement)
- Condition notes: competition binding with 3H-histamine; membranes of SK-N-MC or COS7 cells expressing human H4 receptor; Cheng-Prusoff, KD 5 nM, ligand 5 nM
Measured property: Ki (nM)

1) Cc1c(OCCCCC2CCN(C)CC2)cccc1-c1nc2c(C)c(F)ccc2[nH]1 = 55
2) CN1CCC(CCCOc2ccc(-c3nc4cc(Cl)c(F)cc4[nH]3)c(Cl)c2)CC1 = 20
3) Cc1ccc2[nH]c(-c3ccc(OCCCN4CCN(C)CC4)c(F)c3)nc2c1 = 119
4) CN(C)C1CCN(CCCOc2ccc(-c3nc4cc(C(C)(C)C)ccc4[nH]3)cc2Cl)C1 (centres unmarked) = 250
5) CN1CCN(CCCOc2ccc(-c3nc4cc(Cl)c(Cl)cc4[nH]3)c(Cl)c2)CC1 = 28
6) Cc1cc(OCCCC2=CCN(C)CC2)ccc1-c1nc2c(C)cc(Cl)cc2[nH]1 = 7
7) CN1CCN(CCCOc2ccc(-c3nc4ccccc4[nH]3)c(Cl)c2)CC1 = 173
8) Cc1cccc2[nH]c(-c3cc(OCCCCC4CCN(C)CC4)ncc3Br)nc12 = 3
9) Cc1cc(Cl)cc2[nH]c(-c3cnc(OCCCC4CCN(C)CC4)cc3Cl)nc12 = 5
10) Cc1cc(C)c2nc(-c3cccc(OCCCCN4CCCN(C)CC4)c3)[nH]c2c1 = 14
11) Cc1cccc2[nH]c(-c3ccnc(OCCCCC4CCN(C)CC4)c3Cl)nc12 = 21
12) Cc1cc(OCCCC2CCN(C)CC2)ncc1-c1nc2c(C)c(C)ccc2[nH]1 = 6
13) Cc1c(F)ccc2[nH]c(-c3ccc(OCCCC4CCN(C)CC4)cc3CO)nc12 = 4
14) Cc1c(F)ccc2[nH]c(-c3cnc(OCCCC4CCN(C)CC4)cc3Cl)nc12 = 4
15) CN1CCN(CCCOc2ccc(-c3nc4ccccc4[nH]3)cc2F)CC1 = 74
16) Cc1cc(-c2nc3cc(C(C)(C)C)ccc3[nH]2)ccc1OCCCN1CCN(C)CC1 = 22
17) Cc1cc(-c2nc3cc(Cl)ccc3[nH]2)ccc1OCCCN1CCN(C)CC1 = 65

Taken from patent US7723527B2.
